tested on: pyruvate dehydrogenase (PDH); test: Proportion of active pyruvate dehydrogenase (PDHa/PDHt) in hearts of fat-fed rats after dosing in vivo; set-up: species or system rat; details: dose 1.2 mM/kg subcutaneous; heart of fat-fed rats; 1.5 hours; placebo ratio 0.11-0.24 in the same line
Classify as follows. Reported PDHa/PDHt ratio at 1.5 hours (Compound) greater than or equal to 0.3: MET. Reported PDHa/PDHt ratio at 1.5 hours (Compound) below: NOT MET.

>>> class_label("CCOC(=O)C(=O)c1ccc(OCC)cc1 [R=OC2H5, R1=H, R2=OC2H5, ethyl p-ethoxyphenylglyoxylate]")
"MET"
>>> class_label("COc1ccc(C(=O)C(=O)O)cc1Cl [R=OCH3, R1=3-Cl, R2=OH, m-chloro-p-methoxyphenylglyoxylic acid]")
"MET"
>>> class_label("O=C(O)C(=O)c1ccc(O)cc1 [p-hydroxyphenylglyoxylic acid]")
"NOT MET"
>>> class_label("CCSc1ccc(C(=O)C(=O)O)cc1 [R=SC2H5, R1=H, R2=OH, p-(ethylthio)phenylglyoxylic acid]")
"MET"
>>> class_label("Cc1cc(C(=O)C(=O)O)ccc1O [R=OH, R1=3-CH3, R2=OH, p-hydroxy-m-methylphenylglyoxylic acid]")
"MET"
>>> class_label("Cc1ccc(C(=O)C(=O)O)cc1 [R=CH3, R1=H, R2=OH, p-methylphenylglyoxylic acid]")
"NOT MET"
>>> class_label("COc1ccc(C(=O)C(=O)O)cc1 [R=OCH3, R1=H, R2=OH, p-methoxyphenylglyoxylic acid]")
"MET"
>>> class_label("O=C(O)C(=O)c1ccccc1 [R=H, R1=H, R2=OH, phenylglyoxylic acid]")
"MET"
>>> class_label("CCOc1ccc(C(=O)C(=O)O)cc1 [R=OC2H5, R1=H, R2=OH, p-ethoxyphenylglyoxylic acid]")
"MET"

src = patent US4219566A
